# EXPERIMENTAL TARGET: cGMP-specific 3',5'-cyclic phosphodiesterase (Canis lupus familiaris, UniProt O77746)
Label condition met when IC50 is strictly below 10 nM; otherwise label condition not met.

Worked cases, answers included:
cpd_smiles=COC(=O)c1c(-c2cc(OC)c(OC)c(OC)c2)c2cc(OC)c(OC)cc2c(=O)n1-c1cccc(N)c1.Cl group="condition not met"
cpd_smiles=COc1cc(-c2c(C(N)=O)n(-c3ccc(N)cc3)c(=O)c3cc(OCc4ccccn4)ccc23)cc(OC)c1OC.Cl.Cl group="condition not met"
cpd_smiles=COC(=O)c1c(-c2cc(OC)c(O)c(OC)c2)c2ccc(OCc3ccccn3)cc2c(=O)n1-c1ccc(N)cc1 group="condition not met"

# TODO verify IC50 < 10 nM strictly for this molecule: `COC(=O)c1c(-c2cc(OC)c(OC)c(OC)c2)c2cc(OC)c(OC)cc2c(=O)n1C1CCCC1`
condition not met

###

IC50: recorded values
# EXPERIMENTAL TARGET: Phosphodiesterase 1 (Rattus norvegicus, UniProt Q63421+Q9EPR9+Q01066)
# ASSAY NAME: Inhibitory activity against rat heart Phosphodiesterase 1(PDE1)
# Format: protein assay

As a guide, the following entries are already answered.
cpd_smiles=COC(=O)c1c(-c2cc(OC)c(OC)c(OC)c2)c2cc(OC)ccc2c(=O)n1-c1ccc(N)cc1.Cl property_name=IC50 result="3.9 µM"
cpd_smiles=COC(=O)c1c(-c2cc(OC)c(OC)c(OC)c2)c2ccc(OC)cc2c(=O)n1-c1ccc(N)cc1.Cl property_name=IC50 result="1 µM"
cpd_smiles=COC(=O)c1c(-c2cc(OC)c(OC)c(OC)c2)c2cc(OC)c(OC)cc2c(=O)n1-c1ccc(OC)cc1 property_name=IC50 result="> 10 µM"
cpd_smiles=COC(=O)c1c(-c2cc(O)c(OC)c(OC)c2)c2ccc(OCc3ccccn3)cc2c(=O)n1-c1ccc(N)cc1.Cl.Cl property_name=IC50 result="> 10 µM"
cpd_smiles=COC(=O)c1c(-c2cc(OC)c(OC)c(OC)c2)c2cc(OC)c(OC)cc2c(=O)n1C1CCCC1 property_name=IC50 result="> 10 µM"

The compound listed as `COC(=O)c1c(-c2cc(OC)c(OC)c(OC)c2)c2cc(OC)c(OC)cc2c(=O)n1-c1ccccc1` shows IC50 equal to > 10 µM

The compound listed as `COC(=O)c1c(-c2cc(OC)c(OC)c(OC)c2)c2ccc(OCc3ccccn3)cc2c(=O)n1-c1ccc(N)cc1.Cl.Cl` shows IC50 equal to 1.3 µM

The compound listed as `COC(=O)c1c(-c2cc(OC)c(OC)c(OC)c2)c2cc(OC)c(OC)cc2c(=O)n1-c1ccc(Cl)cc1` shows IC50 equal to > 10 µM

The compound listed as `COC(=O)c1nc(O)c2cc(OC)c(OC)cc2c1-c1cc(OC)c(OC)c(OC)c1` shows IC50 equal to > 10 µM

The compound listed as `COC(=O)c1c(-c2cc(OC)c(OC)c(OC)c2)c2cc(OC)c(OC)cc2c(=O)n1-c1cccc(N)c1.Cl` shows IC50 equal to > 10 µM

The compound listed as `COC(=O)c1c(-c2cc(OC)c(O)c(OC)c2)c2ccc(OCc3ccccn3)cc2c(=O)n1-c1ccc(N)cc1` shows IC50 equal to 2.6 µM

The compound listed as `COC(=O)c1c(-c2cc(OC)c(OC)c(OC)c2)c2ccc(OCc3ccccc3)cc2c(=O)n1-c1ccc(N)cc1.Cl` shows IC50 equal to 2.1 µM

The compound listed as `COC(=O)c1c(-c2cc(OC)c(OC)c(OC)c2)c2cc(OC)c(OC)cc2c(=O)n1-c1ccc(N)cc1.Cl` shows IC50 equal to > 10 µM

The compound listed as `COC(=O)c1c(-c2cc(OC)c(OC)c(OC)c2)c2cc(OC)c(OC)cc2c(=O)n1-c1ccc(NC(C)=O)cc1` shows IC50 equal to > 10 µM

The compound listed as `COC(=O)c1c(-c2cc(OC)c(OC)c(OC)c2)c2cc(OC)c(OC)cc2c(=O)n1C` shows IC50 equal to 2.1 µM

The compound listed as `COc1cc(-c2c(C(=O)O)n(-c3ccc(N)cc3)c(=O)c3cc(OCc4ccccn4)ccc23)cc(OC)c1OC.Cl.Cl` shows IC50 equal to > 10 µM

The compound listed as `COC(=O)c1c(-c2cc(OC)c(C)c(OC)c2)c2ccc(OCc3ccccn3)cc2c(=O)n1-c1ccc(N)cc1.Cl.Cl` shows IC50 equal to 1.1 µM

The compound listed as `COC(=O)c1c(-c2cc(OC)c(OC)c(OC)c2)c2cc(OC)c(OC)cc2c(=O)n1C1CCCCC1` shows IC50 equal to > 10 µM

The compound listed as `COC(=O)c1c(-c2cc(OC)c(OC)c(OC)c2)c2ccc(OCCc3ccccn3)cc2c(=O)n1-c1ccc(N)cc1` shows IC50 equal to > 10 µM

The compound listed as `COC(=O)c1c(-c2cc(OC)c(OC)c(OC)c2)c2cc(OC)c(OC)cc2c(=O)n1-c1ccc(N(C)C)cc1.Cl` shows IC50 equal to > 10 µM

The compound listed as `COc1cc(-c2c(C(N)=O)n(-c3ccc(N)cc3)c(=O)c3cc(OCc4ccccn4)ccc23)cc(OC)c1OC.Cl.Cl` shows IC50 equal to > 10 µM

The compound listed as `COC(=O)c1c(-c2cc(OC)c(OC)c(OC)c2)c2cc(OC)c(OC)cc2c(=O)n1N1CCOCC1` shows IC50 equal to > 10 µM

The compound listed as `COC(=O)c1c(-c2cc(OC)c(OC)c(OC)c2)c2cc(OC)c(OC)cc2c(=O)n1Cc1ccccc1` shows IC50 equal to 3.1 µM

The compound listed as `COC(=O)c1c(-c2cc(OC)c(Br)c(OC)c2)c2ccc(OCc3ccccn3)cc2c(=O)n1-c1ccc(N)cc1.Cl.Cl` shows IC50 equal to 0.46 µM

The compound listed as `CCOC(=O)c1c(-c2cc(OC)c(OC)c(OC)c2)c2ccc(OCc3ccccn3)cc2c(=O)n1-c1ccc(N)cc1.Cl.Cl` shows IC50 equal to 0.55 µM

The compound listed as `COC(=O)c1c(-c2cc(OC)c(OC)c(OC)c2)c2cc(OC)c(OC)cc2c(=O)n1-c1ccc(O)cc1` shows IC50 equal to > 10 µM

The compound listed as `CNC(=O)c1c(-c2cc(OC)c(OC)c(OC)c2)c2ccc(OCc3ccccn3)cc2c(=O)n1-c1ccc(N)cc1.Cl.Cl` shows IC50 equal to > 10 µM

The compound listed as `COC(=O)c1c(-c2cc(OC)c(OC)c(OC)c2)c2ccc(OCc3ccncc3)cc2c(=O)n1-c1ccc(N)cc1.Cl.Cl` shows IC50 equal to 9.5 µM

The compound listed as `CNc1ccc(-n2c(C(=O)OC)c(-c3cc(OC)c(OC)c(OC)c3)c3cc(OC)c(OC)cc3c2=O)cc1` shows IC50 equal to > 10 µM
